B1: mouse Rspo2 Fu1–Fu2 (mRspo2Fu1–Fu2, N37 or I39-G144), His10 [mouse] / mouse ZNRF3 ectodomain (K53-L205), biotinylated, immobilised for SPR [modified: biotin at the C-terminal BirA recognition sequence; biotin at the C-terminal BirA … (parent complex)
chain 1: ICKGCLSCSKDNGCSRCQQKLFFFLRREGMRQYGECLHSCPSGYYGHRAPDMNRCARCRIENCDSCFSKDFCTKCKVGFYLHRGRCFDECPDGFAPLDETMECVEG
chain 2: KETAFVEVVLFESSPSGDYTTHTTGLTGRFSRAGAMLSAEGEIVQMHPLGLCNNNDEEDLYEYGWVGVVKLEQPELDPKPCLTVLGKAKRAVQRGATAVIFDVSENPEAIDQLNQGSEDPLKRPVVYVKGADAIKLMNIVNKQKVARARIQHL

# Variants of: B1
# Experiment: SPR
Property label: pKd
// field semantics: pKd = negative decimal log of concentration (mol/L)

Recorded result, chain 2 E57K , pKd: 6.17
